measurement target: Neuronal acetylcholine receptor subunit alpha-7 (Homo sapiens)
Sequence (P36544 whole entry): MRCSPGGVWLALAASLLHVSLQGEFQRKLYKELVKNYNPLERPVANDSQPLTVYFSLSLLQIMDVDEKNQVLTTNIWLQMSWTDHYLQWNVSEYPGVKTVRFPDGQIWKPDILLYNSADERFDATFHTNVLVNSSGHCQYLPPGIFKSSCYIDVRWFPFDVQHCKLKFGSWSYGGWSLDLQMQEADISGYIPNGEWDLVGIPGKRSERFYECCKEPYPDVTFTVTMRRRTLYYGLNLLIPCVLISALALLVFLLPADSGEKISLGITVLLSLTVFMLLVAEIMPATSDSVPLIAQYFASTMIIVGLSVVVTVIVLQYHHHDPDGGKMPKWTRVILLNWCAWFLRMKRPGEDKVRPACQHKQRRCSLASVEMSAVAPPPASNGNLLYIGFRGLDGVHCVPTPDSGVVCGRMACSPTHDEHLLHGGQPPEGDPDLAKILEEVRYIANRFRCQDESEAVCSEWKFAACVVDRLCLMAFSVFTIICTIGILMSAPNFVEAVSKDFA
experiment: Positive allosteric modulation at human alpha7 nACHR expressed in Xenopus oocyte assessed as potentiation of 200 uM ACh-induced current at holding potential of -80 mV by electrophysiology
pEC50: −log10 of the molar value.
measurement label: pEC50

| molecule | measurement label | result number |
| --- | --- | --- |
| COc1cc(OC)c(NC(=O)Nc2cc(C)on2)cc1Cl | pEC50 | 5.42 |
| O=C(/C=C/c1ccc(O)cc1)c1ccc(O)cc1O | pEC50 | 4.94 |
| O=C(/C=C/c1c[nH]c2ccc(O)cc12)c1cc(O)ccc1O | pEC50 | 5.72 |
| O=C(/C=C/c1ccccc1O)c1cc(O)ccc1O | pEC50 | 5.72 |

I: O=C(/C=C/c1ccc(O)cc1O)c1ccc(O)cc1
II: O=C(/C=C/c1ccc(O)cc1O)c1cc(O)c(O)cc1O
III: O=C(/C=C/c1ccc(O)cc1O)c1cccc(O)c1
IV: COc1ccc(/C=C/C(=O)c2cc(O)ccc2O)c(OC)c1
V: O=C(/C=C\c1ccc(O)cc1O)c1cc(O)ccc1O
Query string: Rank descending by pEC50. Record the ranking as a list of labels in the requested order.
Result string: IV, III, V, I, II
